Data origin, for the record: patent US11596639B2

Test system: H929 human cancer cell lines
Test: Cellular viability / proliferation (Cell TiterGlo, 72 h)
Type: cell-based
Conditions: Homo sapiens, NCI-H929, 72 h, read-out: GI50 on cellular proliferation of H929 human cancer cell lines, H929 cells, 72 h, Cell TiterGlo, 10% FBS
Protocol: Cellular Viability of Human Tumor Cell Lines To evaluate compound effect on cellular proliferation, cells were plated at 1,000 cells/well in 96-well tissue culture plates in a total volume of 90 μL medium supplemented with 10% FBS (Sigma, Saint Louis, Mo.). […] Luminescence is measured on a BioTek Cytation 3. Luminescence values are imported into a template in XLFit (Guildford, Surrey, UK) that uses a four-parameter fit to generate an IC50 value for each compound dilution series on the plate.
measured_metric: GI50 (µM)
All answers are understood in µM, so give the number only.

Give its GI50 value. Item: `Cc1cc(OCCCc2c3n(c4c(-c5c(C)nn(C)c5C)c(Cl)ccc24)CCCN(c2ccc4cnoc4c2)C3=O)cc(C)c1Cl`
5.6

Give its GI50 value. Item: `Cc1cc(N2C[C@@H](C)n3c(c(CCCOc4cc(C)c(Cl)c(C)c4)c4ccc(Cl)c(-c5c(C)nn(C)c5C)c43)C2=O)c2c(c1)cc(C(=O)O)n2Cc1cc(N2CCOCC2)ccn1`
0.33

Give its GI50 value. Item: `Cc1cc(OCCCc2c3n(c4c(-c5c(C)nn(C)c5C)c(Cl)ccc24)[C@H](C)CN(c2cc(CN4CCN(C)CC4)cc4cc(C(=O)O)n(C)c24)C3=O)cc(C)c1Cl`
0.32

Give its GI50 value. Item: `Cc1cc(N2C[C@@H](C)n3c(c(CCCOc4cc(C)c(Cl)c(C)c4)c4ccc(Cl)c(-c5c(C)nn(C)c5C)c43)C2=O)c2c(c1)cc(C(=O)O)n2Cc1cc(N2CCCCC2)ccn1`
1

Give its GI50 value. Item: `Cc1cc(OCCCc2c3n(c4c(-c5c(C)nn(C)c5C)c(Cl)ccc24)CCCN(c2cc(C(=O)O)cc4cnn(C)c24)C3=O)cc(C)c1Cl`
6.9

###

molecular target: UniProtKB Q07820; assay: TR-FRET binding assay, FITC-Bak peptide and MBP-tagged Mcl-1; details: read-out: Ki for Inhibition of Mcl-1 by TR-FRET assay
Listed here are molecules together with their documented Ki.
All answers are understood in nM, so give the number only.

test_smiles	unit_name	Ki
Cc1cc(OCCCc2c3n(c4c(-c5c(C)nn(C)c5C)c(Cl)ccc24)[C@H](C)CN(c2cc(C(=O)O)nc4ccccc24)C3=O)cc(C)c1Cl	nM	1

Query for UniProtKB Q07820: what Ki does the record show for `Cc1cc(OCCCc2c3n(c4c(-c5c(C)nn(C)c5C)c(Cl)ccc24)[C@H](C)CN(c2cc(NCCN4CCCC4)cc4c(C(=O)O)cn(C)c24)C3=O)cc(C)c1Cl` ?
1.4

###

target: Mcl-1 (Homo sapiens (Human)); test: TR-FRET binding assay, FITC-Bak peptide and MBP-tagged Mcl-1; conditions: read-out: Ki for Inhibition of Mcl-1 by TR-FRET assay
Sequence (Q07820 172-327): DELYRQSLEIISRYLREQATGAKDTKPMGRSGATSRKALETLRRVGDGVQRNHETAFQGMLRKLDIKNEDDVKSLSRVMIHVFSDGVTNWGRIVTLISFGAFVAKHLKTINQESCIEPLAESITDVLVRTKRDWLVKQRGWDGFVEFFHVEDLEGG
measured_metric: pKi
The meaning of pKi here: minus log10 of the concentration in molar units.

molecule	measured_metric	obs_value
COCCn1cc(C(=O)O)c2cc(OC)cc(N3C[C@@H](C)n4c(c(CCCOc5cc(C)c(Cl)c(C)c5)c5ccc(Cl)c(-c6c(C)nn(C)c6C)c54)C3=O)c21 (single isomer, unassigned) [Example 673]	pKi	9.51

Kindly review the next molecule as well.
Give its pKi value. Item: `C=Cc1cccc(Cn2c(C(=O)O)cc3cc(C)cc(N4C[C@@H](C)n5c(c(CCCOc6cc(C)c(Cl)c(C)c6)c6ccc(Cl)c(-c7c(C)nn(C)c7C)c65)C4=O)c32)n1`
9.44

###

Listed here are compounds together with their documented Ki.
molecular target: Mcl-1 (Homo sapiens (Human)); assay: Fluorescence polarization anisotropy (FPA) competition assay, FITC-Bak or FITC-Bim BH3 peptide; format: binding; conditions: read-out: Ki for Inhibition of Mcl-1 by FPA assay

compound	obs_value
Cc1cc(OCCCc2c3n(c4c(-c5c(C)ncnc5C)c(Cl)ccc24)[C@H](C)CN(c2cccc4c(C(=O)O)cccc24)C3=O)cc(C)c1Cl [Example 148]	< 1 nM
Cc1ccnc(Cn2c(C(=O)O)cc3cc(C)cc(N4C[C@@H](C)n5c(c(CCCOc6cc(C)c(Cl)c(C)c6)c6ccc(Cl)c(-c7c(C)nn(C)c7C)c65)C4=O)c32)c1 [Example 456]	< 1 nM

Kindly review the next compound as well.
Give its Ki value. Item: Cc1cc(OCCCc2c3n(c4c(-c5c(C)nn(C)c5C)c(Cl)ccc24)CCCN(Cc2cc(C(=O)O)cc(N4CCN(C(=O)OC(C)(C)C)CC4)n2)C3=O)cc(C)c1Cl [Example 8]
27 nM

###

test system: H929 human cancer cell lines; test: Cellular viability / proliferation (Cell TiterGlo, 72 h); assay type: cell-based; settings: Homo sapiens, NCI-H929, 72 h, read-out: GI50 on cellular proliferation of H929 human cancer cell lines, H929 cells, 72 h, Cell TiterGlo, 10% FBS
Listed here are compounds together with their documented GI50.
All answers are understood in nM, so give the number only.

test_smiles	obs_value
Cc1cc(OCCCc2c3n(c4c(-c5c(C)nn(C)c5C)c(Cl)ccc24)[C@H](C)CN(c2ccnc4ccc(C(=O)O)cc24)C3=O)cc(C)c1Cl	320
Cc1cnc(-c2ccc3c(c2)c(N2C[C@@H](C)n4c(c(CCCOc5cc(C)c(Cl)c(C)c5)c5ccc(Cl)c(-c6c(C)nn(C)c6C)c54)C2=O)cn3C)nc1	1100
Cc1cc(OCCCc2c3n(c4c(-c5c(C)nn(C)c5C)c(Cl)ccc24)CCCN(c2cn(C)c4cc(C(=O)O)ccc24)C3=O)cc(C)c1Cl	350

Kindly review the next compound as well.
Query for H929 human cancer cell lines: what GI50 does the record show for `COc1ccc(N2C[C@@H](C)n3c(c(CCCOc4cc(C)c(Cl)c(C)c4)c4ccc(Cl)c(-c5c(C)nn(C)c5C)c43)C2=O)c2c1c(C(=O)O)cn2Cc1cccc(C)n1` ?
920

###

tested on: H929 human cancer cell lines; experiment: Cellular viability / proliferation (Cell TiterGlo, 72 h); format: cell-based; settings: Homo sapiens, NCI-H929, 72 h, read-out: GI50 on cellular proliferation of H929 human cancer cell lines, H929 cells, 72 h, Cell TiterGlo, 10% FBS
measured_metric: GI50 (nM)
All answers are understood in nM, so give the number only.

compound	system	unit_name	GI50
Cc1cc(OCCCc2c3n(c4c(-c5c(C)nn(C)c5C)c(Cl)ccc24)[C@H](C)CN(c2cccc4cc(C(=O)O)n(Cc5cccnc5)c24)C3=O)cc(C)c1Cl [Example 245]	H929 human cancer cell lines	nM	900
Cc1nn(C)c(C)c1-c1c(Cl)ccc2c(CCCOc3ccccc3)c3n(c12)[C@H](C)CN(c1cn(C)c2ccc(C(=O)O)cc12)C3=O [Example 408]	H929 human cancer cell lines	nM	3200

Kindly review the next compound as well.
Give its GI50 value. Item: Cc1cc(OCCCc2c3n(c4c(-c5c(C)nn(C)c5C)c(Cl)ccc24)[C@H](C)CN(c2cn(C)c4ccc(-c5nc6cccc(C)n6n5)cc24)C3=O)cc(C)c1Cl [Example 696]
1400

###

tested on: H929 human cancer cell lines; test: Cellular viability / proliferation (Cell TiterGlo, 72 h); format: cell-based; conditions: Homo sapiens, NCI-H929, 72 h, read-out: GI50 on cellular proliferation of H929 human cancer cell lines, H929 cells, 72 h, Cell TiterGlo, 10% FBS
Listed here are compounds together with their documented GI50.
All answers are understood in nM, so give the number only.

test_smiles	system	GI50, nM
Cc1cc(OCCCc2c3n(c4c(-c5c(C)nn(C)c5C)c(Cl)ccc24)CCCN(c2cccc4c(-c5nn[nH]n5)cn(C)c24)C3=O)cc(C)c1Cl	H929 human cancer cell lines	11000

Give its GI50 value. Item: `Cc1cc(OCCCc2c3n(c4c(-c5c(C)nn(C)c5C)c(Cl)ccc24)[C@H](C)CN(c2cn(C[C@@H]4CCCN4C)c4ccc(C(=O)O)cc24)C3=O)cc(C)c1Cl`
330

Give its GI50 value. Item: `Cc1cc(OCCCc2c3n(c4c(-c5c(C)ncnc5C)c(Cl)ccc24)[C@H](C)CN(c2cn(C)c4ccc(-c5ncn(C)n5)cc24)C3=O)cc(C)c1Cl`
270

Give its GI50 value. Item: `Cc1cc(OCCCc2c3n(c4c(-c5c(C)ncnc5C)c(Cl)ccc24)CCCN(c2cccc4cc(C(=O)O)n(C)c24)C3=O)cc(C)c1Cl`
1200

Give its GI50 value. Item: `C=Cc1cccc(Cn2c(C(=O)O)cc3cc(C)cc(N4C[C@@H](C)n5c(c(CCCOc6cc(C)c(Cl)c(C)c6)c6ccc(Cl)c(-c7c(C)nn(C)c7C)c65)C4=O)c32)n1`
760
